Experiment: Thermostability, ProteoStat Thermal Shift Stability Kit, temperature of aggregation
Type: physicochemical
Details: pH 6.0; NS = protein not soluble
REPORTED ENDPOINT: Tagg pH 6.0
API note: the answer field is a bare number with no unit suffix.

# Tagg pH 6.0 (molecule: SEQID-00100: nutritive polypeptide (protein, listed as Lactobacillus acidophilus) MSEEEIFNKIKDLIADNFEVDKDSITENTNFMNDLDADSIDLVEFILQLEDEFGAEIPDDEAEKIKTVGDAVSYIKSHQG ) is 95

# Tagg pH 6.0 (molecule: SEQID-00485: nutritive polypeptide naturally produced in Chickpea, recombinantly expressed in E. coli (protein, listed as Cicer arietinum) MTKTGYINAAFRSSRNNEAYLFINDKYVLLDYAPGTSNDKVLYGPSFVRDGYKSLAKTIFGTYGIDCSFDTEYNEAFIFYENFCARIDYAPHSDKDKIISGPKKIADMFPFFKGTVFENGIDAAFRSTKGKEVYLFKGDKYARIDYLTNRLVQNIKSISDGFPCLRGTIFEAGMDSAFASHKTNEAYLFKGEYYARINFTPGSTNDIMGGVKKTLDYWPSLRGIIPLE ) is 36

# Tagg pH 6.0 (molecule: SEQID-00622: protein of the 168 nutritive polypeptide library (protein, listed as Oryza sativa, subsp. japonica, protein of the 168 nutritive polypeptide library) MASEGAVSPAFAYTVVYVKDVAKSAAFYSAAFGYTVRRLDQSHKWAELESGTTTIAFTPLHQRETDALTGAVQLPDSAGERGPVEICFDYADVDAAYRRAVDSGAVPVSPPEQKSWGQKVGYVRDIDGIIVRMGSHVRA ) is 46

# Tagg pH 6.0 (molecule: SEQID-00502: protein of the 168 nutritive polypeptide library (protein, Glycine max, protein of the 168 nutritive polypeptide library) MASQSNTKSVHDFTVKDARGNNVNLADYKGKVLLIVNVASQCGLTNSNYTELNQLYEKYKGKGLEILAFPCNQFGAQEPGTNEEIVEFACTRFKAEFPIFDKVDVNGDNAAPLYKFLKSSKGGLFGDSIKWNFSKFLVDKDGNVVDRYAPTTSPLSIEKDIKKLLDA ) is 76.5

# Tagg pH 6.0 (molecule: SEQID-00511: protein of the 168 nutritive polypeptide library (protein, Arthrospira platensis C1, protein of the 168 nutritive polypeptide library) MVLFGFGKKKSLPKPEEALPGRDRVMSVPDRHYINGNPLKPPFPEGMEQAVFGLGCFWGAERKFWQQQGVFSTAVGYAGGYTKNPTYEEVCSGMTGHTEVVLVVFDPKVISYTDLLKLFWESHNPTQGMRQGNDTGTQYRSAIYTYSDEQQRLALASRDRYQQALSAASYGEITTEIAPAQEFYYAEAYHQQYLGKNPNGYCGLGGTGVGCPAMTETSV ) is 39.5

These entries and their values trace back to patent US20260069656A1.
